The origin of these recorded values is paper PMC10397247.

experimental.target: T1, 4H1513-AA
T1 chain: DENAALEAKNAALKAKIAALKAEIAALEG
method.summary: two-hybrid library CCmax;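 also: natural log of median RNA to DNA barcode read ratio; higher means stronger binding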
condition.set: mean of both orientations
Mark fulfilled for reported interaction score of -0.6 or greater; mark not fulfilled for anything smaller.

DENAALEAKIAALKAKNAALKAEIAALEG [4H1401-AA] | not fulfilled
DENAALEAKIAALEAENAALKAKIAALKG [4H1310-AA] | not fulfilled
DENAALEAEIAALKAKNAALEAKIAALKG [4H1142-AA] | not fulfilled

q: Record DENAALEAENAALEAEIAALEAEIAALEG [4H1153-AA] ; criterion: interaction score no lower than -0.6. Met?
a: fulfilled
